Target: GDP-bound KRAS wild-type protein (Homo sapiens, UniProt P01116)
Sequence (P01116 whole entry): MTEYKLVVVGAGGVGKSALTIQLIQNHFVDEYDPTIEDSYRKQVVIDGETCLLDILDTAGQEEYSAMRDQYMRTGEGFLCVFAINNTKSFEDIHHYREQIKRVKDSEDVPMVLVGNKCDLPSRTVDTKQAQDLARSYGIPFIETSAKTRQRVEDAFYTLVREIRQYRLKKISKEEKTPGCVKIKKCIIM
Test: Binding to KRAS by surface plasmon resonance (SPR), Single Cycle Kinetics
Settings: SPR, Single Cycle Kinetics, GDP-bound KRAS wild-type protein; read-out: KRAS KD
Kd listing for selected compounds.
The figure you give is taken to be in nM; do not add the unit.

Solved cases below.
{"columns": ["COMPOUND", "MEASUREMENT"],
 "data": [
  ["CC[C@H](C)[C@@H]1NC(=O)[C@H](CC(C)C)N(C)C(=O)C[C@@H](C(=O)N(C)CC)N(C)C(=O)[C@H](C2CCCC2)N(C)C(=O)C2(CC(C)(C)C2)NC(=O)[C@@H]2C[C@@H](C)CN2C(=O)[C@H](CCc2ccc(C(F)(F)F)c(OC)c2)NC(=O)CN(C)C(=O)[C@H](Cc2ccc(C)cc2)N2CC/C=C\\C[C@@H](C2=O)N(C)C(=O)CN(C)C1=O [PP1909]", 0.34],
  ["CCO[C@@H]1C[C@H]2C(=O)NC3(CCC3)C(=O)N(C)[C@@H](C3CCCC3)C(=O)N(C)[C@H](C(=O)N(C)C)CC(=O)N(C)[C@@H](CC)C(=O)N[C@@H]([C@@H](C)CC)C(=O)N(C)CC(=O)N(C)[C@H]3CC=C(C)CN(C3=O)[C@@H](Cc3ccc(C(F)(F)F)cc3)C(=O)N(C)CC(=O)N[C@@H](CCc3cc(F)c(C(F)(F)F)c(F)c3)C(=O)N2C1 [PP0827]", 0.11]
]}

IN: # query: Kd of entry CCC[C@H]1C(=O)N[C@@H]([C@@H](C)CC)C(=O)N(C)CC(=O)N(C)[C@H]2C/C=C\CCN(C2=O)[C@@H](Cc2ccc(C)cc2)C(=O)N(C)CC(=O)N[C@@H](CCc2ccc(C(F)(F)F)c(Cl)c2)C(=O)N2C[C@@H](C)C[C@H]2C(=O)NC2(CC(C)(C)C2)C(=O)N(C)[C@@H](C2CCCC2)C(=O)N(C)[C@H](C(=O)N(C)CC)CC(=O)N1C [PP1893]
OUT: 0.17

====

Target: GDP-bound KRAS wild-type protein (Homo sapiens, UniProt P01116)
Test: Binding to KRAS by surface plasmon resonance (SPR), Single Cycle Kinetics
Details: SPR Single Cycle Kinetics, GDP-bound KRAS wild-type protein, 1:1 binding model; read-out: KRAS KD
*1 amine or outer side, *2 acyl side, *3 side chain or, on linkers, in order; H or OH if unused. Where a SMILES comes first, the peptide text is derived from it. Bridges are numbered along the chain shown (N, C = ends). [ ]: non-standard residue; d: D form. The star is where a group is joined. hPhe(3-Cl-4-CF3) = N[C@@H](CCc1ccc(C(F)(F)F)c(Cl)c1)C(=O)O; X37 = O=C([C@H](Cc1ccc(C(F)(F)F)cc1)N(CC1CCC1)[*:1])[*:2]; NPrPhe(4-CF3) = CCCN[C@@H](Cc1ccc(C(F)(F)F)cc1)C(=O)O; NMeGly(cPent) = CN[C@H](C(=O)O)C1CCCC1; Pro(4,4-F2) = O=C(O)[C@@H]1CC(F)(F)CN1; Hyp = O=C(O)[C@@H]1C[C@@H](O)CN1; NMeD = CN[C@@H](CC(=O)O)C(=O)O; NMeL = CN[C@@H](CC(C)C)C(=O)O; Morpholide = C1CN(*)CCO1; NMeA = CN[C@@H](C)C(=O)O; Ac5c = NC1(C(=O)O)CCCC1; Aze = O=C(O)[C@@H]1CCN1; Ac4c = NC1(C(=O)O)CCC1; NEtG = CCNCC(=O)O; Sar = CNCC(=O)O
MEASURE_NAME: pKd
# pKd = -log10(concentration in molar units)

Solved cases below.
{"columns": ["COMPOUND", "pKd"],
 "data": [
  ["CCOC[C@H]1C(=O)N[C@@H]([C@@H](C)CC)C(=O)N(C)CC(=O)N(C)[C@H]2C/C=C\\CCN(C2=O)[C@@H](Cc2ccc(C(F)(F)F)cc2)C(=O)N(C)CC(=O)N[C@@H](CCc2ccc(Cl)c(Cl)c2)C(=O)N2C[C@H](OCC)C[C@H]2C(=O)NC2(CC(C)(C)C2)C(=O)N(C)[C@@H](CC2CCC2)C(=O)N(C)[C@H](C(=O)N(C)C)CC(=O)N1C", 9.31],
  ["CCCN1C(=O)CN(C)C(=O)CN(CC)C(=O)[C@H]([C@@H](C)CC)NC(=O)[C@H](CC(C)C)N(C)C(=O)C[C@@H](C(=O)N2CCOCC2)N(C)C(=O)[C@H](C2CCCC2)N(C)C(=O)C2(CCC2)NC(=O)[C@@H]2CCCN2C(=O)[C@H](CCc2ccc(C(F)(F)F)c(Cl)c2)NC(=O)CN(C)C(=O)[C@@H]1Cc1ccc(C(F)(F)F)cc1 [PP0398] ([NMeL]I[NEtG][Sar][NPrPhe(4-CF3)][Sar][hPhe(3-Cl-4-CF3)]P[Ac4c][NMeGly(cPent)][NMeD]-Morpholide; lactam N-11)", 9.32],
  ["CCCN1C(=O)CN(C)C(=O)CN(CC)C(=O)[C@H]([C@@H](C)CC)NC(=O)[C@H](CC(C)C)N(C)C(=O)C[C@@H](C(=O)N2CCOCC2)NC(=O)[C@H](C2CCCC2)N(C)C(=O)C2(CCC2)NC(=O)[C@@H]2CC(F)(F)CN2C(=O)[C@H](CCc2ccc(C(F)(F)F)c(Cl)c2)NC(=O)CN(C)C(=O)[C@@H]1Cc1ccc(C(F)(F)F)cc1 [PP0334] ([NMeL]I[NEtG][Sar][NPrPhe(4-CF3)][Sar][hPhe(3-Cl-4-CF3)][Pro(4,4-F2)][Ac4c][NMeGly(cPent)]D-Morpholide; lactam N-11)", 8.33],
  ["CC[C@H](C)[C@@H]1NC(=O)[C@H](COC)N(C)C(=O)C[C@@H](C(=O)N(C)C)N(C)C(=O)[C@H](C2CCCC2)N(C)C(=O)C2(CC(C)(C)C2)NC(=O)[C@@H]2CCCCN2C(=O)[C@H](CCc2cc(F)c(C(F)(F)F)c(F)c2)NC(=O)CN(C)C(=O)[C@H](Cc2ccc(C(F)(F)F)cc2)N2CC/C=C\\C[C@@H](C2=O)N(C)C(=O)CN(C)C1=O", 9.64],
  ["CC[C@H](C)[C@@H]1NC(=O)[C@H](CC(C)C)N(C)C(=O)C[C@@H](C(=O)N2CCOCC2)N(C)C(=O)[C@H](C2CCCC2)N(C)C(=O)C2(CCCC2)NC(=O)[C@@H]2CCCN2C(=O)[C@H](CCc2ccc(C(F)(F)F)c(Cl)c2)NC(=O)CN(C)C(=O)[C@H](Cc2ccc(C(F)(F)F)cc2)N(CC2CCC2)C(=O)CN(C)C(=O)CN(C)C1=O [PP0123] ([NMeL]I[Sar][Sar][X37][Sar][hPhe(3-Cl-4-CF3)]P[Ac5c][NMeGly(cPent)][NMeD]-Morpholide; lactam N-11)", 9.08]
]}

Now look at this one.
IN: # query: pKd of entry CCCN1C(=O)[C@@H]2CCN2C(=O)[C@H](C)N(C)C(=O)[C@H]([C@@H](C)CC)NC(=O)[C@H](CC(C)C)N(C)C(=O)C[C@@H](C(=O)N(C)C)N(C)C(=O)[C@H](C2CCCC2)N(C)C(=O)C2(CCC2)NC(=O)[C@@H]2C[C@@H](OCC)CN2C(=O)[C@H](CCc2ccc(C(F)(F)F)c(Cl)c2)NC(=O)CN(C)C(=O)[C@@H]1Cc1ccc(C(F)(F)F)cc1 [PP0439] ([NMeL]I[NMeA][Aze][NPrPhe(4-CF3)][Sar][hPhe(3-Cl-4-CF3)][Hyp](Et)[Ac4c][NMeGly(cPent)][NMeD]-NMe2; lactam N-11)
OUT: 10.68

====

pKd listing for selected molecules.
Target: GDP-bound KRAS wild-type protein (Homo sapiens, UniProt P01116)
Experiment: Binding to KRAS by surface plasmon resonance (SPR), Single Cycle Kinetics
Conditions: SPR, Single Cycle Kinetics, GDP-bound KRAS wild-type protein; read-out: KRAS KD
# pKd = -log10(concentration in molar units)

{"columns": ["SMI", "pKd"],
 "data": [
  ["CCO[C@@H]1C[C@H]2C(=O)NC3(CC(C)(C)C3)C(=O)N(C)[C@@H](C(CC)CC)C(=O)N(C)[C@H](C(=O)N(C)C)CC(=O)N(C)[C@@H](CC(C)C)C(=O)N[C@@H]([C@@H](C)CC)C(=O)N(C)CC(=O)N(C)[C@H]3C/C=C\\CCN(C3=O)[C@@H](Cc3ccc(C)cc3)C(=O)N(C)CC(=O)N[C@@H](CCc3ccc(Cl)c(Cl)c3)C(=O)N2C1", 9.15],
  ["CCO[C@H](C)[C@@H]1NC(=O)[C@H](CC(C)C)N(C)C(=O)C[C@@H](C(=O)N(C)C)N(C)C(=O)[C@H](C2CCCC2)N(C)C(=O)C2(CC(C)(C)C2)NC(=O)[C@@H]2C[C@H](C)CN2C(=O)[C@H](CCc2ccc(C(F)(F)F)c(OC)c2)NC(=O)CN(C)C(=O)[C@H](Cc2ccc(C)cc2)N2CC/C=C\\C[C@@H](C2=O)N(C)C(=O)CN(C)C1=O", 9.82]
]}

IN: # query: pKd of entry CCC[C@H]1C(=O)N[C@@H]([C@@H](C)CC)C(=O)N2CC[C@H]2C(=O)N(C)[C@H]2C/C=C\CCN(C2=O)[C@@H](Cc2ccc(C(F)(F)F)cc2)C(=O)N(C)CC(=O)N[C@@H](CCc2cc(F)c(C(F)(F)F)c(F)c2)C(=O)N2C[C@H](OCC)C[C@H]2C(=O)NC2(CC(C)(C)C2)C(=O)N(C)[C@@H](C2CCCC2)C(=O)N(C)[C@H](C(=O)N(C)C)CC(=O)N1C
OUT: 9.64
